test system: HepG2 Srxn1-GFP reporter cells (+30 nM CDDO-Me); assay: Srxn1-GFP intensity median modified Z-score relative to plate median; higher = stronger NRF2 / oxidative stress reporter activation, active = hit call of the paper; settings: 10 µM; exposure time: 24h
The whole screen tested about 2,300 compounds, of which about 330 (14%) showed activity. A selection follows.
Property Measured: Srxn1-GFP intensity median modified Z-score
Keep the answer to the number alone.

Compound: C[n+]1cc2c3c(ccc2c2ccc4cc5c(cc4c21)OCO5)OCO3
Readout Number: 0.32

Q: Missing value: Srxn1-GFP intensity median modified Z-score, HepG2 Srxn1-GFP reporter cells (+30 nM CDDO-Me), entry O=C(Oc1cc(O)cc2c1CC(OC(=O)c1cc(O)c(O)c(O)c1)C(c1cc(O)c(O)c(O)c1)O2)c1cc(O)c(O)c(O)c1 (stereo unspecified) . Fill in?
A: -0.336

Q: What about O=c1cc(-c2ccc(O)cc2)oc2ccc(O)cc12 ?
A: 1.7

Q: What about O=C(c1ccc(COc2ccc(Cl)cc2)cc1)N1CCN(Cc2ccc3c(c2)OCO3)CC1 ?
A: 1.17

Q: What about CCS(=O)(=O)CCn1c([N+](=O)[O-])cnc1C ?
A: 0.00367

Q: What about COc1ccc2cc3[n+](cc2c1OC)CCc1cc2c(cc1-3)OCO2 ?
A: 6.03

Q: What about C=C(NC(=O)C(C)=NC(=O)c1csc(C2=NC3c4csc(n4)C4NC(=O)c5csc(n5)C(C(C)(O)C(C)O)NC(=O)C5CSC(=N5)C(=CC)NC(=O)C(C(C)O)NC(=O)c5csc(n5)C3(CC2)NC(=O)C(C)NC(=O)/C(C)=N/C(=O)C(C)NC(=O)C(C(C)CC)NC2C=Cc3c(C(C)O)cc(nc3C2O)C(=O)OC4C)n1)C(N)=O (stereo unspecified) ?
A: 19.1

Q: What about C[C@H]1CC2C3CC=C4CC(=O)C=C[C@]4(C)[C@@]3(F)[C@@H](O)C[C@]2(C)[C@@]1(O)C(=O)COP(=O)(O)O (stereo partly specified) ?
A: -0.294

Q: What about Cn1cnc([N+](=O)[O-])c1Sc1ncnc2[nH]cnc12 ?
A: 2.86

Q: What about CCOc1ccc(S(=O)(=O)O)c2cccnc12 ?
A: 0.0425

Q: What about CC(C)C1CC[C@@H](C)CC1=O (stereo partly specified) ?
A: -0.168

Q: What about CN(C)CCCN1c2ccccc2Sc2ccc(Cl)cc21 ?
A: 0.609

Q: What about CC(C=CC1(O)C(C)=CC(=O)CC1(C)C)=CC(=O)O (stereo unspecified) ?
A: 0.012

Q: What about O=C(O)[C@]1(O)C[C@@H](O)[C@@H](O)[C@H](O)C1 ?
A: -0.119

Q: What about COc1ccccc1N1CCN(CCCNc2cc(=O)n(C)c(=O)n2C)CC1 ?
A: -0.334

Q: What about CCCC(NC(C)C(=O)N1C(C(=O)O)C[C@@H]2CCCC[C@@H]21)C(=O)OCC (stereo partly specified) ?
A: -0.404

====

test system: HepG2 Srxn1-GFP reporter cells (+30 nM CDDO-Me); assay: Srxn1-GFP intensity median modified Z-score relative to plate median; higher = stronger NRF2 / oxidative stress reporter activation, active = hit call of the paper; details: 10 µM; exposure time: 24h
The campaign covered roughly 2,300 compounds. About 330 (14%) showed activity.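 Rule for the calls: active = median modified Z-score above 1.96; inactive = 1.96 or below.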 Only a sample is shown.
Lab note: assign the record to one of active, inactive

Compound: O=C(O)Cc1ccccc1Nc1c(Cl)cccc1Cl [euspeclibcmpd2396]
Assigned Class: inactive

Q: What outcome does the record of this test show for CC(C)(CO)C(=O)C(O)NCCC(=O)NCCSSCCNC(=O)CCNC(=O)C(O)C(C)(C)CO (stereo not given) [euspeclibcmpd1231] ?
A: inactive

Q: What about C[C@]12CCC(=O)CC1=CCC1C2[C@@H](O)C[C@@]2(C)C1CC[C@]2(O)C(=O)COC(=O)CCC(=O)O (stereo not given in full) [euspeclibcmpd152] ?
A: inactive

Q: What about CCCN1C(=O)/C(=C/c2ccc(-n3ccnc3)cc2)SC1=S ?
A: active

Q: What about O=S1(=O)CCC(N(C2CC2)S(=O)(=O)c2ccc(F)c(Cl)c2)C1 (stereo not given) ?
A: inactive
